- Test system: BRISTOL8
- measurement_notes: Cytotoxic activity against human BRISTOL8 cell line was measured after 72 hr using MTT assay
- Assay type: functional
- test_settings: Homo sapiens, BRISTOL8, 72 h; read-out: ED50 (the source's name)
measure_name: EC50 (µg/mL)
Kindly answer with a numeric value in µg/mL, unit omitted.

Examples from the recorded data:
| compound | EC50 (µg/mL) |
| --- | --- |
| C=C(C)[C@@H]1CC[C@]2(C(=O)O)CC[C@]3(C)C(CCC4[C@@]5(C)CC[C@H](OC(=O)C(C)C(=O)OC)C(C)(C)C5CC[C@]43C)C12 (stereo partly drawn) | 1.7 |
| C=C(C)[C@@H]1CC[C@]2(C(=O)O)CC[C@]3(C)C(CCC4[C@@]5(C)CC/C(=N\Nc6ccccc6)C(C)(C)C5CC[C@]43C)C12 (stereo partly drawn) | 3.4 |

Switching to the query record.
# input GET /values?readout=EC50&item= CC(=O)O[C@H]1CC[C@@]2(C)C(CC[C@]3(C)C2CCC2C4[C@H](C(C)C)CC[C@]4(C(=O)O)CC[C@]23C)C1(C)C (stereo partly drawn)
# output 3.4

Hey, just so you know, these numbers are from ChEMBL document CHEMBL1138817.
